The measurements presented in this section are drawn from patent US20170267750A1.

# measurement target: T1, TIM-1 antigen (Homo sapiens, UniProt Q96D42, DEL158-162/L179P)
# T1 construct: V5; His; made in house; host or cells: baculovirus expression system (pMelV5His vector / pBlueBac)
# T1 sequence (Q96D42 with tags, fused parts or gaps DEL158-162/L179P): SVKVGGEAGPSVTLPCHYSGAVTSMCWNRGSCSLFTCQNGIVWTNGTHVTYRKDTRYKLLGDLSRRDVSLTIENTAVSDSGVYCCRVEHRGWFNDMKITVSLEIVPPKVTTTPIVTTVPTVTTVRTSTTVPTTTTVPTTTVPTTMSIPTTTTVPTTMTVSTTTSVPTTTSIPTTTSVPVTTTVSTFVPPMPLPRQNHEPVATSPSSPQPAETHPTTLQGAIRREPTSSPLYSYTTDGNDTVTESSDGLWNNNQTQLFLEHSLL
# assay method text: Epitope binning (antigen binding competition, Luminex)
# measurement parameters: Table 9
Quick list: Bin per entry.
Answer as a number with no unit attached.

As a guide, the following entries are already answered.
>  <molecule>
mAb 2.70: fully human IgG4 kappa anti-TIM-1 monoclonal antibody; heavy chain SEQ ID NO: 42, light chain SEQ ID NO: 44 (antibody, listed as Homo Sapiens, V domains shown) VH: QVQLVESGGGVVQPGRSLRLSCAASGFIFSRYGMHWVRQAPGKGLKWVAVIWYDGSNKLYADSVKGRFTISRDNSKNTLYLQMNSLRAEDTAVYYCARDYYDNSRHHWGFDYWGQGTLVTVSSA VL: DIVMTQTPLSLPVTPGEPASISCRSSRSLLDSDDGNTYLDWYLQKPGQSPQLLIYTLSYRASGVPDRFSGSGSGTDFTLKISRVEAEDVGVYYCMQRVEFPITFGQGTRLEIKR

>  <Bin>
6

$$$$
>  <molecule>
mAb 1.29: fully human IgG2 kappa anti-TIM-1 monoclonal antibody; heavy chain SEQ ID NO: 2, light chain SEQ ID NO: 4 (antibody, listed as Homo Sapiens, V domains shown) VH: QVQLQESGPGLVKPSETLSLTCTVSGGSVSSGGYYWSWIRQPPGKGLEWIGFIYYTGSTNYNPSLKSRVSISVDTSKNQFSLKLSSVTAADAAVYYCARDYDWSFHFDYWGQGTLVTVSSA VL: DIQMTQSPSSLSASIGDRVTITCRASQGIRNDLGWYQQKPGKAPKRLIYAASSLQSGVPSRFSGSGSGTEFTLTISSLQPEDFATYYCLQHNSYPLTFGGGTKVEIKR

>  <Bin>
1

$$$$
>  <molecule>
mAb 1.37: fully human IgG2 kappa anti-TIM-1 monoclonal antibody; heavy chain SEQ ID NO: 6, light chain SEQ ID NO: 8 (antibody, listed as Homo Sapiens, V domains shown) VH: EVQLVESGGGLVQPGGSLRLSCAASGFTFTNYWMSWVRQAPGKGLEWVANIQQDGSEKYYVDSVRGRFTISRDNAKNSLYLQMNSLRAEDSAVYYCARWDYWGQGTLVTVSSA VL: DIVMTQTPLSSTVILGQPASISCRSSQSLVHSDGNTYLNWLQQRPGQPPRLLIYMISNRFSGVPDRFSGSGAGTDFTLKISRVEAEDVGVYYCMQATESPQTFGQGTKVEIKR

>  <Bin>
4

$$$$
>  <molecule>
mAb 2.59: fully human IgG4 kappa anti-TIM-1 monoclonal antibody; heavy chain SEQ ID NO: 34, light chain SEQ ID NO: 36 (antibody, listed as Homo Sapiens, V domains shown) VH: NNNNNQSGPRLVKPSQTLSLTCTVSGGSISSDGYYWSWIRQHPGKGLEWIGYIYYSGSTFYNPSLKSRVAISVDTSKNQFSLKLSSVTAADTAVYYCARESPHSSNWYSGFDCWGQGTLVTVSSA VL: NNNNTQSPDFQSVTPKEKVTITCRASQSIGSRLHWYQQKPDQSPKLLIKYASQSFSGVPSRFSGSGSGTDFTLTINSLEAEDAATYYCHQSSNLPFTFGPGTKVDIKR

>  <Bin>
1

$$$$

Consider the additional molecule presented here.
Problem: Quick one: Bin for mAb 2.61: fully human IgG4 kappa anti-TIM-1 monoclonal antibody; heavy chain SEQ ID NO: 38, light chain SEQ ID NO: 40 (antibody, listed as Homo Sapiens, V domains shown) VH: QVQLVEAGGGVVQPGRSLRLSCAASGFTFRSYGMHWVRQAPGKGLKWVAVIWYDGSNKYYTDSVKGRFTISRDNSKNTLYLQMNSLRAEDTAVYYCVRDYYDNSRHHWGFDYWGQGTLVTVSSA VL: DIQMTQSPSSRCASVGDRVTITCRASQGIRNDLAWYQQKPGKAPKRLIYAASSLQSGVPSRFSGSRSGTEFTLTISSLQPEDFAAYYCLQHNSYPPSFGQGTKLEIKR ?
Solution: 4
